Test system: K. pneumoniae 848844
Procedure text: microbe, parasite or virus in culture
Assay type: cell-based
Test conditions: Klebsiella pneumoniae, 848844, read-out: MIC K. pneumoniae 848844

Compound	MIC
CS(=O)(=O)N1CCN(C(=O)N[C@@H](C(=O)N[C@H]2Cc3cccc(C(=O)O)c3OB2O)c2ccc(P(=O)(O)O)c(F)c2)C1=O (single isomer, unassigned) [Example 15]	> 128 µg/mL
O=C(O)c1cccc2c1OB(O)[C@@H](NC(=O)[C@H](NC(=O)c1ccn[nH]c1=O)c1ccc(P(=O)(O)O)cc1)C2 (single isomer, unassigned) [Example 178]	> 128 µg/mL
O=C(O)c1cccc2c1OB(O)[C@@H](NC(=O)[C@@H](NC(=O)c1cnc3sccn3c1=O)c1ccc(P(=O)(O)O)cc1)C2 (single isomer, unassigned) [Example 194]	> 128 µg/mL

---

The following compounds are listed with their measured MIC values.
Test system: N. gonorrhoeae MS11
Procedure text: Liquid broth MIC in Fastidious broth
Test conditions: Neisseria gonorrhoeae, MS11, read-out: Minimum Inhibitory Concentration, MS11

Compound	MIC
Cc1cc(C(=O)NCCCN2CCN(C(=O)NC(C(=O)N[C@H]3Cc4ccc(F)c(C(=O)O)c4OB3O)c3cc(F)c(O)c(O)c3Cl)C(=O)C2=O)c(F)cn1 (some centres unmarked) [Example 301]	16 to 32 µg/mL
O=C(O)c1c(F)ccc2c1OB(O)[C@@H](NC(=O)C(NC(=O)N1CCN(C3CCN(C(=O)c4cccc(O)c4)CC3)C(=O)C1=O)c1cc(F)c(O)c(O)c1Cl)C2 (some centres unmarked) [Example 293]	16 to 32 µg/mL
O=C(NCCCS(=O)(=O)N1CCN(C(=O)NC(C(=O)N[C@H]2Cc3ccc(F)c(C(=O)O)c3OB2O)c2cc(F)c(O)c(O)c2Cl)C1=O)Nc1ccncc1 (some centres unmarked) [Example 291]	16 to 32 µg/mL
O=C(NCCCN1CCN(C(=O)NC(C(=O)N[C@H]2Cc3ccc(F)c(C(=O)O)c3OB2O)c2cc(F)c(O)c(O)c2Cl)C(=O)C1=O)c1ccc(O)cc1O (some centres unmarked) [Example 307]	16 to 32 µg/mL
O=C(NCCCN1CCN(C(=O)N[C@H](C(=O)N[C@H]2Cc3ccc(F)c(C(=O)O)c3OB2O)c2cc(F)c(O)c(O)c2Cl)C1=O)Nc1ccc(O)cc1 [Example 283]	> 64 µg/mL
O=C(NCCN1CCN(C(=O)NC(C(=O)N[C@H]2Cc3ccc(F)c(C(=O)O)c3OB2O)c2cc(F)c(O)c(O)c2Cl)C1=O)Nc1ccncc1 (some centres unmarked) [Example 250]	16 to 32 µg/mL
O=C(NCCS(=O)(=O)N1CCN(C(=O)N[C@@H](C(=O)N[C@H]2Cc3ccc(F)c(C(=O)O)c3OB2O)c2cc(F)c(O)c(O)c2Cl)C1=O)c1nccs1 [Example 264]	16 to 32 µg/mL
O=C(NCCCS(=O)(=O)N1CCN(C(=O)NC(C(=O)N[C@H]2Cc3ccc(F)c(C(=O)O)c3OB2O)c2cc(F)c(O)c(O)c2Cl)C1=O)c1nccs1 (some centres unmarked) [Example 274]	16 to 32 µg/mL
O=C(NCCCN1CCN(C(=O)N[C@@H](C(=O)N[C@H]2Cc3ccc(F)c(C(=O)O)c3OB2O)c2cc(F)c(O)c(O)c2Cl)C(=O)C1=O)c1ccnc(F)c1F [Example 300]	16 to 32 µg/mL
O=C(NCCCN1CCN(C(=O)N[C@@H](C(=O)N[C@H]2Cc3ccc(F)c(C(=O)O)c3OB2O)c2cc(F)c(O)c(O)c2Cl)C1=O)c1ccccc1 [Example 253]	16 to 32 µg/mL
O=C(NCCCS(=O)(=O)N1CCN(C(=O)N[C@H](C(=O)N[C@H]2Cc3ccc(F)c(C(=O)O)c3OB2O)c2cc(F)c(O)c(O)c2Cl)C1=O)c1cccc(O)c1 [Example 270]	> 64 µg/mL

The values you see were collected from patent US20240270762A1.
